# targetOrTestSystem: T1, huIL1RAP ECD recombinant protein (human, UniProt Q9NPH3 21-367)
# T1 construct: also called recombinant human IL1RAP-ECD; recombinant human IL1RAP; not shown: C-terminal histidine tag for purification
# testMethodNotes: Octet BLI, antibody on Protein A biosensor, recombinant huIL1RAP ECD
parameter: log10 Kd (log10 of the value in nM)
For clarity, the numbers are log10 values of Kd expressed in nM.

Examples with their reported log10 Kd follow.
binder	log10 Kd
38E10_21C3 (antibody, V domains shown, Recombinant human antibody) VH: EVQLLESGGGLVQPGGSLRLSCAASGFTFSNYAMTWVRQAPGKGLEWVSSISISRAGTYYADSVKGRFTISRDNSKNTLNLQMNSLRAEDTAEYYCAREYYYGMDVWGQGTTVTVSS VL: EIVLTQSPATLSLSPGERATLSCRASQSVSSYLAWYQQKPGQTPRLLIYDASNRATGIPARFSGSGSGTDFTLTISSLETEDFAVYYCQQLINWPLTFGGGTKLEIK	0.30
5D12_18A4 (antibody, V domains shown, Recombinant human antibody) VH: QVQLQESGPGLVKPLGTLSLTCAVSGGSISNSNWWSWVRQPPGKGLEWIGEIYHSGSTNYNPSLKSRVTIALDWSKNQFSLQLRSVTAADTAVYYCARYGSGPFGGDCWGQGTLVTVSS VL: DIQLTQSPSFLSASVGDRVTISCRASQGISSYLAWYQQKPGKAPKLLIYAASTLQGGVPSRFSGSGSGTTFTLTISSLQPEDFATYYCQQLNTYPFTFGPGTKLEIK	1.28
35D11_22A1 (antibody, V domains shown, Recombinant human antibody) VH: QLQLVESGGGVVQPGRSLRLSCAASGFTFSSYGMHWVRQAPGKGLEWVAVIWYDGSSEYYADSVKGRFTISRDNSKNTLFLQMNSLRADDTAVYYCARENVYGSGWFFDYWGQGTLVTVSS VL: EIVMTQSPATLSVSPGERASLSCRASQSVGSNLAWYQQKPGQAPRLLIFGASTRATGIPARFSGSRSGTEFTLTISSLQSEDFALYYCQQYDNWPPWTFGQGTKLEIK	0.48
41G4_15B6 (antibody, V domains shown, Recombinant human antibody) VH: QVQLVESGGGVVQPGRSLRLSCAASGFTFRNYGMHWVRQAPGKGLEWVAVIWYDGSNKFYADSVKGRFTISRDNSKNTLYLQMNSLRVEDTAVYYCAREEGIAVAPFDYWGQGTLVTVSS VL: DIQMTQSPSSLSASVGDRVAITCRANQSIASYLNWYQQKPGKAPKLLIYGASSLQNGVPSRFSGSGSRTDFTLTISSLQPEDFATYYCQQSYSTEITFGQGTRLEIK	0.70
32F9_21A5 (antibody, V domains shown, Recombinant human antibody) VH: QLQLVESGGGVVQPGRSLRLSCAASGFTFSSHGMHWVRQAPGKGLEWVAVIWYDGSSEYYADSVKGRFTISRDNSKNTLYLQMNSLRAEDTAVYYCARENVYGSGWFFDYWGQGSLVTVSS VL: EIVMTQSPATLSVSPGERASLSCRASQSVGSNLAWYQQKPGQAPRLLIFGASTRATGIPARFSGSRSGTEFTLTISSLQSEDFALYYCQQYNNWPPWTFGQGTKLEIK	0.30
34H8_21B4 (antibody, V domains shown, Recombinant human antibody) VH: QVQLQESGPGLVKPSETLSLTCAVSGYSASGLYYWAWIRQPPGKGLEWIGNIYHSGRTYYNPSLESRVSISLDTSKHQVSLKLKSVTYADTAVYFCARDRFDGFDIWGQGTMVTVSS VL: EIVMTQSPATLSVSPGERATLSCRASQTINNILAWYQQKPGQAPRLLIYGASTRATGIPARFSGSGSGTEFTLTISSLQSEDFAVYYCQQYNNWPLTFGGGTKLEIK	0.70

Q: Tell me its log10 Kd given 33E9_21A6 (antibody, V domains shown, Recombinant human antibody) VH: QLQLVESGGGVVQFGRSLRLSCAASGFTFSSHGMHWVRQAPGKGLEWVAVIWYDGSSEYYADSVKGRFTISRDNSKNTLYLQMNSLRAEDTAVYYCARENVYGSGWFFDYWGQGTLVTVSS VL: EIVMTQSPATLSVSPGERASLSCRASQSVGSNLAWYQQKPGQAPRLLIFGASTRATGIPARFSGSRSGTEFTLTISSLQSEDFALYYCQQYNNWPPWTFGQGTKLEIK as the entry.
Result: 0.30
